# key: entry, value: EC50
# Test system: Trypanosoma cruzi
# Assay Name: Antitrypanosomal activity against Trypanosoma cruzi Tulahuen intracellular amastigotes transfected with beta-galactosidase infected in human U937 cells incubated for 72 hrs by spectrophotometry
# Assay type: functional, organism-based
# Study Conditions: U-937, 72 h, read-out: EC50
The reply should contain only the number, in µM.

{"Structure": "COc1ccc(/C=C/C(=O)OCCCCCCCCCOc2cc(Cl)ccc2Oc2ccc(Cl)cc2Cl)cc1OC", "Value Measured": 33}

Inquiry: What value of EC50 has been recorded for this entry: COc1ccc(/C=C/C(=O)OCCCCOc2cc(Cl)ccc2Oc2ccc(Cl)cc2Cl)cc1OC
Reply text: 42.8

Inquiry: What value of EC50 has been recorded for this entry: O=C(/C=C/c1ccc(O)c(O)c1)OCCCCCCCCCOc1cc(Cl)ccc1Oc1ccc(Cl)cc1Cl
Reply text: 41.3

Inquiry: What value of EC50 has been recorded for this entry: Oc1cc(Cl)ccc1Oc1ccc(Cl)cc1Cl
Reply text: 49
